Origin of values: patent US20260347325A1

EC (1.5-fold) by entry:
Tested on: sAPPα
Experiment: sAPPα secretion (sAPPα/sAPPβ multiplex kit)
Type: cell-based, human
Conditions: Homo sapiens, 24 h; concentration to increase sAPPα by 1.5-fold vs untreated; read-out: sAPPα C1.5
# number only, unit µM dropped from output

Determine from records and report EC (1.5-fold) for Cc1cn(-c2cccc(CN3CCN(C)CC3)c2)nc1-c1cccc(CN(C)CCCN(C)C)c1 [Compound 71]
1.1

Kindly review the next compound as well.
Determine from records and report EC (1.5-fold) for Cc1cn(-c2cccc(CN(C)C)c2)nc1-c1ccc(CN(C)CCCN(C)C)cc1 [Compound 67]
1.4
